# experiment_description: growth inhibition of DIPG glioma cells, dose response, cell-based, SU-DIPG-XIII, MIPE4.0, CellTiter-Glo, qHTS (AID 1347061);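 also: cells exposed to compound for 48 hours before readout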
# assay_setup: SU-DIPG-XIII viability, CellTiter-Glo ATP luminescence
Records with an inconclusive call do not appear. Activity calls are given as the source filed them. The limit is not given here; nearly all actives have AC50 up to about 37 µM.
Respond using exactly one of the listed classes: active, inactive

(Q) Returns: the outcome recorded for `COc1cc(O)c2c(c1)C(=O)c1cc(C)cc(O)c1C2=O` in this assay.
(A) inactive

(Q) Returns: the outcome recorded for `COc1ccc2cc([C@H](C)C(=O)O)ccc2c1` in this assay.
(A) inactive

(Q) Returns: the outcome recorded for `NCCCC(O)(P(=O)(O)O)P(=O)(O)O` in this assay.
(A) inactive

(Q) Returns: the outcome recorded for `CCCCCOC(=O)Nc1nc(=O)n([C@@H]2O[C@H](C)[C@@H](O)[C@H]2O)cc1F` in this assay.
(A) inactive

(Q) Returns: the outcome recorded for `Cc1ccc(-n2nc(C(C)(C)C)cc2NC(=O)Nc2ccc(OCCN3CCOCC3)c3ccccc23)cc1` in this assay.
(A) active

(Q) Returns: the outcome recorded for `C[C@@H]1[C@H](O)[C@@H](C)/C=C/C=C/C=C/C=C/C=C/C=C/C=C/[C@H](O[C@@H]2O[C@H](C)[C@@H](O)[C@H](N)[C@@H]2O)C[C@@H]2O[C@](O)(C[C@@H](O)C[C@@H](O)[C@H](O)CC[C@@H](O)C[C@@H](O)CC(=O)O[C@H]1C)C[C@H](O)[C@H]2C(=O)O` in this assay.
(A) active

(Q) Returns: the outcome recorded for `COc1ccc(CCC(=O)c2c(O)cc(O[C@@H]3O[C@H](CO)[C@@H](O)[C@H](O)[C@H]3O[C@@H]3O[C@@H](C)[C@H](O)[C@@H](O)[C@H]3O)cc2O)cc1O` in this assay.
(A) active

(Q) Returns: the outcome recorded for `COc1ccc2c3c1O[C@H]1C[C@@H](O)C=C[C@@]31CCN(C)C2` in this assay.
(A) inactive

(Q) Returns: the outcome recorded for `CCCCCCCCOc1ccccc1C(=O)Nc1ccc(C(=O)OCC[N+](C)(CC)CC)cc1` in this assay.
(A) inactive

(Q) Returns: the outcome recorded for `NCCc1cnc[nH]1` in this assay.
(A) inactive

(Q) Returns: the outcome recorded for `CCN(C)C(=O)Oc1cccc([C@H](C)N(C)C)c1` in this assay.
(A) inactive

(Q) Returns: the outcome recorded for `Nc1nc(Cl)nc2c1ncn2[C@@H]1O[C@H](CO)[C@@H](O)[C@@H]1F` in this assay.
(A) inactive

(Q) Returns: the outcome recorded for `CN1CCN(c2c(F)cc3c(=O)c(C(=O)O)cn(CCF)c3c2F)CC1` in this assay.
(A) inactive

(Q) Returns: the outcome recorded for `O=C(CCc1ccc(O)cc1)c1c(O)cc(O)cc1O[C@@H]1O[C@H](CO)[C@@H](O)[C@H](O)[C@H]1O` in this assay.
(A) inactive

(Q) Returns: the outcome recorded for `CC(C)OC(=O)C(C(=O)OC(C)C)=C1SC=CS1` in this assay.
(A) inactive

(Q) Returns: the outcome recorded for `O=c1[nH]c(=O)n([C@H]2C[C@H](O)[C@@H](CO)O2)cc1I` in this assay.
(A) inactive

(Q) Returns: the outcome recorded for `N=C(N)c1ccc2cc(OC(=O)c3ccc(N=C(N)N)cc3)ccc2c1` in this assay.
(A) inactive

(Q) Returns: the outcome recorded for `O=c1c(-c2ccc(O)cc2)coc2cc(O)ccc12` in this assay.
(A) inactive
